Tested on: EKVX
Experiment: NCI screen, growth of human tumor cells: Non-Small Cell Lung EKVX
Format: cell-based
Settings: EKVX (Non-Small Cell Lung), 10^−4 molar
Protocol: In the NCI screening process, each compound was tested and described by a minimum of 60 data points. The test data include, but are not limited to the type of cancer, the molar concentration used in the screen, and the percent growth of the cancer. In some cases, NMR and elemental analysis were used for structural assignment.
Examples of molecules with documented percent of growth of human tumor cells follow.

MOLECULE	UNIT_ANNOTATION	percent of growth of human tumor cells
O=S1(=O)OCCOS(=O)(=O)C1(I)I [NSC 648308, ethylene diiodomethanedisulfonate]	%	−35
CC1=C(CC2(S(=O)(=O)C(F)(F)F)S(=O)(=O)OCCOS2(=O)=O)C(=O)c2ccccc2C1=O	%	−36
CC=CC(=O)C1(CC2=C(C)C(=O)c3ccccc3C2=O)S(=O)(=O)OCCOS1(=O)=O	%	−57
O=S1(=O)OCCOS(=O)(=O)C1c1cccc2cccnc12 [NSC 698122, ethylene 8-quinolylmethanedisulfonate]	%	28

====

system: 786-0; assay: NCI screen, growth of human tumor cells: Renal Cancer 786-0; format: cell-based; conditions: 786-0 (Renal Cancer), 10^−4 molar
Examples of compounds with documented percent of growth of human tumor cells follow.
PARAMETER_MEASURED: percent of growth of human tumor cells (%)

COMPOUND	UNIT_ANNOTATION	READOUT_VALUE
O=S1(=O)OCCOS(=O)(=O)C1Cc1nc2ccccc2[nH]1 [NSC 679042]	%	22
O=S1(=O)CS(=O)(=O)OCCO1 [NSC 348948, ethylene methanedisulfonate]	%	24
CC=CC(=O)C1(Cc2ccc3c(c2)C(=O)c2ccccc2C3=O)S(=O)(=O)OCCOS1(=O)=O [NSC 731263]	%	1
CCOCC1(COCC)S(=O)(=O)OCCOS1(=O)=O [NSC 698120]	%	15
C[Si](C)(OCCS(=O)(=O)O)C1S(=O)(=O)OCCOS1(=O)=O [NSC 674991]	%	16

====

system: human cancer cells; experiment: NCI screen summary over the cancers tested (negative growth of human cancer cells); format: cell-based; conditions: 10^−4 M conc.; cancers with negative growth / cancers tested
Examples of compounds with documented Percentage of cancers showing negative growth cancers tested follow.
PARAMETER_MEASURED: Percentage of cancers showing negative growth cancers tested

COMPOUND	READOUT_VALUE
O=S1(=O)OCCOS(=O)(=O)C1c1cccc2cccnc12 [NSC 698122, ethylene 8-quinolylmethanedisulfonate]	10^−4 M conc. = 8/31 = 25.8%
O=S1(=O)OCCOS(=O)(=O)C1Cc1nc2ccccc2[nH]1	10^−4 M conc. = 12/32 = 38%
O=S1(=O)OCCOS(=O)(=O)C1(Br)Br [NSC 648304, ethylene dibromomethanedisulfonate]	10^−4 M conc. = 1/3 = 33%
CCOCC1(COCC)S(=O)(=O)OCCOS1(=O)=O	10^−4 M conc. = 22/42 = 52%
CC1S(=O)(=O)OCCOS1(=O)=O	2/12 = 17%
O=S1(=O)OCCOS(=O)(=O)C1I [NSC 648309, ethylene iodomethanedisulfonate]	10^−4 M conc. = 0/2 = 0%
CC1=C(CC2S(=O)(=O)OCCOS2(=O)=O)C(=O)c2ccccc2C1=O	98%
COC=C1S(=O)(=O)OCCOS1(=O)=O	10^−4 M conc. = 0/6 = 0%
O=C1c2ccccc2C(=O)N1CC1S(=O)(=O)OCCOS1(=O)=O	10^−4 M conc. = 0/2 = 0%
CC=CC(=O)C1(CC2=C(C)C(=O)c3ccccc3C2=O)S(=O)(=O)OCCOS1(=O)=O	79%
O=C(c1ccccc1S(=O)(=O)O)C1S(=O)(=O)OCCOS1(=O)=O	10^−4 M conc. = 8/17 = 47%
CCOCC1(CC2=C(C)C(=O)c3ccccc3C2=O)S(=O)(=O)OCCOS1(=O)=O	10^−4 M conc. = 8/25 = 32%
CC1(C)OCC(COC(=O)C(=O)C2(C3=C(Cl)C(=O)c4ccccc4C3=O)S(=O)(=O)OCCOS2(=O)=O)O1 (stereo not drawn)	10^−4 M conc. = 8/12 = 67%
CC1=C(CC2(C(=O)C(=O)OCC3COC(C)(C)O3)S(=O)(=O)OCCOS2(=O)=O)C(=O)c2ccccc2C1=O (stereo not drawn)	10^−4 M conc. = 6/9 = 67%
Cc1ccc2ccccc2c1CC1S(=O)(=O)OCCOS1(=O)=O	100%
O=C(c1cccc2ccccc12)C1S(=O)(=O)OCCOS1(=O)=O [NSC 679047, ethylene 1-naphthoylmethanedisulfonate]	10^−4 M conc. = 1/3 = 33%
CC(=O)C1(CC2=C(C)C(=O)c3ccccc3C2=O)S(=O)(=O)OCCOS1(=O)=O	100%
CC1(C)OCC(COC(=O)C(=O)OC(C(=O)OCC2COC(C)(C)O2)=C2S(=O)(=O)OCCOS2(=O)=O)O1 (stereo not drawn)	10^−4 M conc. = 1/5 = 20%
CC=CC(=O)C1(C2=C(Cl)C(=O)c3ccccc3C2=O)S(=O)(=O)OCCOS1(=O)=O	65%
O=S1(=O)OCCOS(=O)(=O)C1C1c2ccccc2-c2ccccc21 [NSC 686562, ethylene 9-fluorenylmethanedisulfonate]	10^−4 M conc. = 11/38 = 29%
O=S(=O)([O-])OCCCC1S(=O)(=O)OCCOS1(=O)=O.[Na+]	10^−4 M conc. = 0/1 = 0%
N#CCCC1(CCC#N)S(=O)(=O)OCCOS1(=O)=O	10^−4 M conc. = 3/32 = 9%
O=C1C(Cl)=C(C2S(=O)(=O)OCCOS2(=O)=O)C(=O)c2ccccc21	10^−4 M conc. = 16/37 = 43%
O=S1(=O)OCCOS(=O)(=O)C1(F)Br [NSC 665943, ethylene fluorobromomethanedisulfonate]	10^−4 M conc. = 0/1 = 0%
O=S1(=O)OCCOS(=O)(=O)[C-]1S(=O)(=O)c1cccc2ccccc12.[Na+]	10^−4 M conc. = 1/4 = 25%
O=C(c1ccc2ccccc2c1)C1(I)S(=O)(=O)OCCOS1(=O)=O	100%
CC1=C(CC2(S(=O)(=O)C(F)(F)F)S(=O)(=O)OCCOS2(=O)=O)C(=O)c2ccccc2C1=O	81%
CCCCCCCCOCC1S(=O)(=O)OCCOS1(=O)=O	10^−4 M conc. = 0/1 = 0%
O=S1(=O)OCCOS(=O)(=O)C1=NNc1c(O)cc(S(=O)(=O)O)c2ccccc12	10^−4 M conc. = 0/5 = 0%
O=S1(=O)OCCOS(=O)(=O)C1(Cl)Cl	10^−4 M conc. = 0/5 = 0%
CC=CC(=O)C1(Cc2ccc3c(c2)C(=O)c2ccccc2C3=O)S(=O)(=O)OCCOS1(=O)=O	10^−4 M conc. = 18/36 = 50%
CC1(C)OCC(COC(=O)C(=O)C2(Cc3ccc4c(c3)C(=O)c3ccccc3C4=O)S(=O)(=O)OCCOS2(=O)=O)O1 (stereo not drawn)	10^−4 M conc. = 49/55 = 89%
O=S1(=O)OCCOS(=O)(=O)C1F [NSC 665942, ethylene fluoromethanedisulfonate]	10^−4 M conc. = 0/1 = 0%
